- ASSAY_TEXT: Volume of distribution in Sprague-Dawley rat at 10 mg/kg, iv by LC-MS/MS analysis
- Format: ADME, organism-based
- Set-up: dose 10 mg/kg, route intravenous
- TEST_CONDITIONS: in vivo
QUANTITY_NAME: Vd
The answer should read as a number with its unit following.

// Vd lookup, compound = O=C(O)c1cccc(-c2cccc(CCS)c2C(=O)O)c1 , result: 19 L/kg

###

- ASSAY_TEXT: Apparent oral clearance in Sprague-Dawley rat at 30 mg/kg, po administered via gavage measured under fasted conditions by LC-MS/MS analysis
- Type: ADME, organism-based
- Design: dose 30 mg/kg, route oral
- TEST_CONDITIONS: in vivo
QUANTITY_NAME: CL/F

For reference, reported CL/F for O=C(O)c1cccc(-c2cccc(CCS)c2C(=O)O)c1 stands at 8.5 mL/min/kg

###

- ASSAY_TEXT: Phase 2 metabolic stability in mouse liver microsomes assessed as compound remaining at 10 uM measured for 1 hr by LC-MS/MS analysis in absence of cofactors
- Type: ADME
- TEST_CONDITIONS: read-out: Stability
QUANTITY_NAME: remaining at 1 h, 10 µM

Summary for this compound, O=C(O)c1cccc(-c2cccc(CCS)c2C(=O)O)c1 : remaining at 1 h, 10 µM is > 90%

###

- ASSAY_TEXT: Tmax in Sprague-Dawley rat at 10 mg/kg, iv by LC-MS/MS analysis
- Type: ADME, organism-based
- Set-up: dose 10 mg/kg, route intravenous
- TEST_CONDITIONS: in vivo
QUANTITY_NAME: Tmax (min)
Provide only the numeric value, understood in min.

Measured Tmax, O=C(O)c1cccc(-c2cccc(CCS)c2C(=O)O)c1 : 6.6

###

- ASSAY_TEXT: AUC(0 to infinity) in Sprague-Dawley rat at 10 mg/kg, iv by LC-MS/MS analysis
- Type: ADME, organism-based
- Parameters: time infinity, dose 10 mg/kg, route intravenous
- TEST_CONDITIONS: plasma
QUANTITY_NAME: AUC(0-inf) (ng·h/mL)
Kindly provide the numeric value in ng·h/mL only, without the unit symbol.

The reported AUC(0-inf) of the compound O=C(O)c1cccc(-c2cccc(CCS)c2C(=O)O)c1 was 87000

###

- ASSAY_TEXT: Cmax in Sprague-Dawley rat liver at 10 mg/kg/day, po administered for 5 days measured per gm of tissue by LC-MS/MS analysis
- Format: ADME, organism-based
- Design: dose 10 mg/kg/day, route oral
QUANTITY_NAME: Cmax (ng/g)
Answer in ng/g, number only, no unit symbol.

Reported Cmax for O=C(O)c1cccc(-c2cccc(CCS)c2C(=O)O)c1 was 457

###

- ASSAY_TEXT: AUC(0 to infinity) in Sprague-Dawley rat at 1 mg/kg, po administered via gavage measured under fasted conditions by LC-MS/MS analysis
- Format: ADME, organism-based
- Set-up: time infinity, dose 1 mg/kg, route oral
- TEST_CONDITIONS: plasma
QUANTITY_NAME: AUC(0-inf) (ng·h/mL)
Report as a plain number; the unit ng·h/mL is understood.

For O=C(O)c1cccc(-c2cccc(CCS)c2C(=O)O)c1 the compound record lists AUC(0-inf) as 3210

###

- ASSAY_TEXT: Cmax in Sprague-Dawley rat at 10 mg/kg, iv by LC-MS/MS analysis
- Type: ADME, organism-based
- Design: dose 10 mg/kg, route intravenous
- TEST_CONDITIONS: in vivo
QUANTITY_NAME: Cmax (µg/mL)
Report the value in µg/mL with no unit label.

get_value(item= O=C(O)c1cccc(-c2cccc(CCS)c2C(=O)O)c1 , readout=Cmax) returns 57.2
